Please go through the items and note down their IC50 at 72 h.
- experiment description: Renal cytotoxicity against HK-2 cells incubated for 72 hrs by CCK8 assay
- Format: toxicity, cell-based
- conditions: human
Bridge positions count the residues as written; N and C are the ends. Square brackets hold non-standard residues; d marks the D form. Peptide text beside a SMILES is read from it. * marks the point of attachment. Heptanoyl(6-Me) = CC(C)CCCCC(=O)*; Dab = NCC[C@H](N)C(=O)O; Dap = NC[C@H](N)C(=O)O

CC(C)CCCCC(=O)N[C@@H](CCN)C(=O)N[C@H](C(=O)N[C@H](CO)C(=O)N[C@H]1CCNC(=O)[C@H]([C@@H](C)O)NC(=O)[C@H](CN)NC(=O)[C@H](CCN)NC(=O)[C@H]([C@@H](C)O)NC(=O)[C@@H](Cc2ccccc2)NC(=O)[C@H](CCN)NC1=O)[C@@H](C)O ({Heptanoyl(6-Me)}-[Dab]T[dS][Dab][Dab][dF]T[Dab][Dap]T; lactam 4-C) : > 500 µg/mL

Then this compound:
Request: Any idea what IC50 at 72 h was measured for "CC(C)CCCCC(=O)N[C@@H](CCN)C(=O)N[C@H](C(=O)N[C@H](CO)C(=O)N[C@H]1CCNC(=O)[C@H]([C@@H](C)O)NC(=O)[C@H](CCN)NC(=O)[C@H](CCN)NC(=O)[C@H](CC(C)C)NC(=O)[C@H](Cc2ccccc2)NC(=O)[C@H](CCN)NC1=O)[C@@H](C)O" ?
Response: > 500 µg/mL

###

Please go through the items and note down their MIC.
- Tested on: Acinetobacter baumannii
- experiment description: Antibacterial activity against Acinetobacter baumannii NCTC 13304 (OXA-27) assessed as inhibition of bacterial growth incubated for 16 to 20 hrs by CLSI protocol based broth microdilution method
- Format: functional
- conditions: time 16-20 hrs
Bridge positions count the residues as written; N and C are the ends. Square brackets hold non-standard residues; d marks the D form. Peptide text beside a SMILES is read from it. * marks the point of attachment. Heptanoyl(6-Me) = CC(C)CCCCC(=O)*; X1 = CC[C@H](C)CCCCC(=O)*; dDab = NCC[C@@H](N)C(=O)O; Dab = NCC[C@H](N)C(=O)O; Dap = NC[C@H](N)C(=O)O

# example entries with known answers
CC(C)CCCCC(=O)N[C@@H](CCN)C(=O)N[C@H](C(=O)N[C@H](CO)C(=O)N[C@H]1CCNC(=O)[C@H]([C@@H](C)O)NC(=O)[C@H](CN)NC(=O)[C@H](CCN)NC(=O)[C@H]([C@@H](C)O)NC(=O)[C@@H](Cc2ccccc2)NC(=O)[C@H](CCN)NC1=O)[C@@H](C)O ({Heptanoyl(6-Me)}-[Dab]T[dS][Dab][Dab][dF]T[Dab][Dap]T; lactam 4-C) : ≤ 0.03 µg/mL
CC(C)CCCCC(=O)N[C@@H](CCN)C(=O)N[C@H](C(=O)N[C@@H](CN)C(=O)N[C@H]1CCNC(=O)[C@H]([C@@H](C)O)NC(=O)[C@H](CCN)NC(=O)[C@H](CCN)NC(=O)[C@H]([C@@H](C)O)NC(=O)[C@@H](Cc2ccccc2)NC(=O)[C@H](CCN)NC1=O)[C@@H](C)O ({Heptanoyl(6-Me)}-[Dab]T[Dap][Dab][Dab][dF]T[Dab][Dab]T; lactam 4-C) : ≤ 0.03 µg/mL

Request: Any idea what MIC was measured for CC[C@H](C)CCCCC(=O)N[C@@H](CCN)C(=O)N[C@H](C(=O)N[C@H](CCN)C(=O)N[C@H]1CCNC(=O)[C@H]([C@@H](C)O)NC(=O)[C@H](CCN)NC(=O)[C@H](CCN)NC(=O)[C@H]([C@@H](C)O)NC(=O)[C@@H](Cc2ccccc2)NC(=O)[C@H](CCN)NC1=O)[C@@H](C)O (X1-[Dab]T[dDab][Dab][Dab][dF]T[Dab][Dab]T; lactam 4-C) ?
Response: ≤ 0.03 µg/mL
